Quick reference: FGF21 activity (EC50, nM); p-ERK levels of the listed items.
# system: T1, human beta-Klotho (human, UniProt Q86Z14 1-1044)
# T1 sequence (looked up): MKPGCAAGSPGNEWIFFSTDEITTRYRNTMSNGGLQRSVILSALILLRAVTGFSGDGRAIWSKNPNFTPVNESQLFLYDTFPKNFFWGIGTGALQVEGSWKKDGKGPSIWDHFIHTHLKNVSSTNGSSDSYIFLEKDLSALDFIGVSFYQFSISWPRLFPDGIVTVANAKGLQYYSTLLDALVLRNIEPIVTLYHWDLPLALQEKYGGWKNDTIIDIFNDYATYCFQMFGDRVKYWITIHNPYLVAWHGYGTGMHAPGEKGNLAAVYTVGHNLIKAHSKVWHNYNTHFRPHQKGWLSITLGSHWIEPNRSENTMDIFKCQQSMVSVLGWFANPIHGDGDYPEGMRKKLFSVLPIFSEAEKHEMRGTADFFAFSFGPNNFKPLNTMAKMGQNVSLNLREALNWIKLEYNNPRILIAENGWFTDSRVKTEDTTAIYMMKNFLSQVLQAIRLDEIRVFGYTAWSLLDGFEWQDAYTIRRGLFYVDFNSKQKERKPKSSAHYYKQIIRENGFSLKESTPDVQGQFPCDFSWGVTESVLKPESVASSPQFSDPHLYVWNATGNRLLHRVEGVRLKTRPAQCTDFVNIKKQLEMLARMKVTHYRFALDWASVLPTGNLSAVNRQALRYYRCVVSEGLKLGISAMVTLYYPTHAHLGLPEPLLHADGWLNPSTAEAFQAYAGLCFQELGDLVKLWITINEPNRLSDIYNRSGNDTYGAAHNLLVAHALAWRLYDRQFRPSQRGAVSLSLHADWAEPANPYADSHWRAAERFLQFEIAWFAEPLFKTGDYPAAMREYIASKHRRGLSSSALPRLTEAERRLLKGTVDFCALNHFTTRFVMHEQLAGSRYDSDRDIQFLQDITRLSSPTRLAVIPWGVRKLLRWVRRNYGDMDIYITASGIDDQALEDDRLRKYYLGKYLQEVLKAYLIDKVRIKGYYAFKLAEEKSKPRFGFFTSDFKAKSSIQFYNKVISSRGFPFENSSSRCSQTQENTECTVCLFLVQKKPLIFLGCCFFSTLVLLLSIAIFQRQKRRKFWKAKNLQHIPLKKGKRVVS
# procedure.text: cell-based or functional assay
The response must be a number in nM with no trailing unit.

// solved cases for FGF21 activity (EC50, nM); p-ERK levels follow
>  <binder>
Compound 2 (ligand, Moiety A (HOOC-(CH2)16-CO-gGlu-2XADO) on 20K and 231K of fusion polypeptide) HGEGTFTSDVSSYLEEQAAKEFIAWLVRGGGGGGGSGGGGSGGGGSGGGGSHPIPDSSPLLQFGGQVRQRYLYTDDAQQTEAHLEIREDGTVGGAADQSPESLLQLRALRPGVIQILGVRTSRFLCQRPDGALYGSLHFDPEACSFRELLLEDGYNVYQSEAHGLPLHLPGQRSPHRDPAPRGPARFLPLPGLPPALPEPPGILAPQPPDVGSSDPLSLVGGSQGRSPSYKS

>  <FGF21 activity (EC50, nM); p-ERK levels>
5.5

$$$$
>  <binder>
Compound 4 (ligand, Moiety A (HOOC-(CH2)16-CO-gGlu-2XADO) on 51K and 231K of fusion polypeptide) HGEGTFTSDVSSYLEEQAAREFIAWLVRGGGGGGGSGGGGSGGGGSGGGGKHPIPDSSPLLQFGGQVRQRYLYTDDAQQTEAHLEIREDGTVGGAADQSPESLLQLRALRPGVIQILGVRTSRFLCQRPDGALYGSLHFDPEACSFRELLLEDGYNVYQSEAHGLPLHLPGQRSPHRDPAPRGPARFLPLPGLPPALPEPPGILAPQPPDVGSSDPLSLVGGSQGRSPSYKS

>  <FGF21 activity (EC50, nM); p-ERK levels>
7.7

$$$$
>  <binder>
Compound 66 (ligand, Moiety B (HOOC-(CH2)20-CO-gGlu-2XADO-EDA-CO-CH2) on 51C and 225C of fusion polypeptide) HGEGTFTSDVSSYLEEQAAKEFIAWLVKGGGGSAPGSPAGSPTGSAPGSPCHPIPDSSPLLQFGGQVRQRYLYTDDAQQTEAHLEIREDGTVGGAADQSPESLLQLKALKPGVIQILGVKTSRFLCQRPDGALYGSLHFDPEACSFRELLLEDGYNVYQSEAHGLPLHLPGQKSPHRDPAPRGPARFLPLPGLPPALPEPPGILAPQPPDVGSSDPLSLVGGSQCRSPSYES

>  <FGF21 activity (EC50, nM); p-ERK levels>
1

$$$$
>  <binder>
Compound 39 (ligand, Moiety A (HOOC-(CH2)16-CO-gGlu-2XADO) on 71K and 242K of fusion polypeptide) HGEGTFTSDVSSYLEEQAAREFIAWLVRGGGGGGGSGGGGSGGGGSGGGGSGGGGSGGGGSGGGGSGGGGKHPIPDSSPLLQFGGQVRQRYLYTDDAQQTEAHLEIREDGTVGGAADQSPESLLQLRALRPGVIQILGVRTSRFLCQRPDGALYGSLHFDPEACSFRELLLEDGYNVYQSEAHGLPLHLPGQRSPHRDPAPRGPARFLPLPGLPPALPEPPGILAPQPPDVGSSDPLSLVGKSQGRSPSYES

>  <FGF21 activity (EC50, nM); p-ERK levels>
4.2

$$$$

// moving on: another record for FGF21 activity (EC50, nM); p-ERK levels
[ask] For the binder shown here, Compound 20 (ligand, Moiety A (HOOC-(CH2)16-CO-gGlu-2XADO) on 51K and 221K of fusion polypeptide) HGEGTFTSDVSSYLEEQAAREFIAWLVRGGGGGGGSGGGGSGGGGSGGGGKHPIPDSSPLLQFGGQVRQRYLYTDDAQQTEAHLEIREDGTVGGAADQSPESLLQLRALRPGVIQILGVRTSRFLCQRPDGALYGSLHFDPEACSFRELLLEDGYNVYQSEAHGLPLHLPGQRSPHRDPAPRGPARFLPLPGLPPALPEPPGILAPQPPDVGSSDPLSLVKPSQGRSPSYES , give the reported FGF21 activity (EC50, nM); p-ERK levels.
[reply] 10.6
